# System: T. cruzi-infected H9C2 cardiomyocytes, high-content imaging
# method-notes: intracellular T. cruzi amastigote inhibition, imaging, H9C2 host cardiomyocytes, host toxicity (AID 1159565);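 further: infected cells incubated 72 h after plating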
# run-parameters: measured here: H9C2 host cell toxicity
readout-type: IC50

Consider the worked cases shown below.
CC(C)CC(=O)Nc1cc(C2CC2)nn1-c1nc2c(c(=O)[nH]1)CCCC2 = 2.5 µM
CCn1c(-c2nonc2N)nc2c([C@@H](C)O)ncc(O[C@H](CN)c3ccccc3)c21 = 0.63 µM
Cc1ccc(CNC2CCN(C[C@@H]3Cn4c(=O)ccc5ccc(=O)n3c54)CC2)cc1F = > 50 µM
CN(C)c1ncc(-c2cncn2CCOc2ccc(Cl)cc2)cn1 = > 50 µM
CCCCn1nnnc1CSc1nc(C)cc(C)c1C#N = > 50 µM

# IC50 lookup, item Cc1ccnc(NS(=O)(=O)c2ccc(NC(=O)c3ccc([N+](=O)[O-])s3)cc2)n1 5 µM

Reported IC50, molecule COc1ccc(OC)c(S(=O)(=O)N(Cc2c(F)cccc2F)[C@@H]2CCN(C#N)C2)c1 : ____ 16 µM

Requested field: IC50. Item: CCC(=O)Nc1ccccc1C(=O)Nc1ccccn1 > 50 µM

Tell me the measured IC50 of N#Cc1cc(-c2ccnc(Nc3cccc(CN4CCOCC4)c3)n2)ccc1NCCN , please. 7.9 µM

Any idea what its IC50 is? The molecule is O=[N+]([O-])c1ccc(-c2nnn(-c3ccc(Cl)cc3)n2)o1 10 µM

Please report the recorded IC50 for Cc1c(C(=O)NCCCCn2ccnc2)oc2c(C)cccc12 . > 50 µM

What value of IC50 has been reported for the following molecule? CN(CCOc1ccc(Cl)cc1)Cc1nc(N)nc(N(C)C)n1 > 50 µM

Which IC50 value belongs to CCS(=O)(=O)Nc1ccc(C2=NN(C(=O)c3cccs3)C(c3ccccc3OC)C2)cc1 (stereo not given) ? > 50 µM

For the molecule COc1ccc2ncc(=O)n(CCN3CC[C@H](NCc4ncc(Cl)c5[nH]ncc45)[C@H](O)C3)c2n1 , what IC50 is on record? > 50 µM

IC50 for Cn1ccnc1CN1CCc2[nH]cnc2C1c1ccccc1OCc1ccccc1 (stereo not given) ? > 50 µM

Name the reported IC50 value associated with the molecule Cc1ccc(NC(C)C(=O)Nc2ccc(C#N)cc2)cc1S(=O)(=O)N1CCCCC1 (stereo not given) > 50 µM

Recorded IC50 for O=C(NNC(=O)c1ccccn1)c1ccc(-c2ccccc2)cc1 , please? 2 µM

Would you kindly share the measured IC50 for COc1ccccc1C=CCN1C[C@H]2CCC[C@@H](C1)C2(O)c1cccnc1 (stereo not given in full) ? > 50 µM

Please give the measured IC50 for this molecule: Nc1nc(-c2ccccn2)nc(N)c1Cc1c(F)cccc1Cl 1.3 µM

* * *

# System: T. cruzi-infected H9C2 cardiomyocytes, high-content imaging
# method-notes: intracellular T. cruzi amastigote inhibition, imaging, H9C2 host cardiomyocytes, host toxicity (AID 1159565);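 further: infected cells incubated 72 h after plating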
# run-parameters: measured here: H9C2 host cell toxicity
readout-type: log10 of IC50 (log10 of the value in µM)
Units before log transform: µM; reported quantity: IC50; transform: log10.

Recorded log10 of IC50 for CN(C)c1ccc(-c2cc3nccnc3c(OC[C@H]3CCCNC3)n2)cn1 , please? 1.30

Dear colleague, I am looking for the recorded log10 of IC50 of the following compound: COc1ncc(-c2ccc3nccc(-c4ccncc4)c3c2)cc1NS(=O)(=O)C1CC1 -0.10

What does the data say about its log10 of IC50? Entry: COc1ccccc1CNc1cc(C2CC2)nc(-c2nccn2C)n1 -0.20

Using the record for Cn1ccnc1-c1nc(NCc2ccccc2Cl)cc(C2CC2)n1 , report its log10 of IC50. -0.20

Request the reported log10 of IC50 associated with Cc1cccc(Nc2nc(-c3ccccn3)cs2)n1 -0.20
